- systemName: isolated recombinant JAK2 kinase domain (Homo sapiens, UniProt O60674)
- Construct: The activity of the isolated recombinant JAK1 and JAK2 kinase domain was measured
- Sequence (O60674 849-1124 limits assumed): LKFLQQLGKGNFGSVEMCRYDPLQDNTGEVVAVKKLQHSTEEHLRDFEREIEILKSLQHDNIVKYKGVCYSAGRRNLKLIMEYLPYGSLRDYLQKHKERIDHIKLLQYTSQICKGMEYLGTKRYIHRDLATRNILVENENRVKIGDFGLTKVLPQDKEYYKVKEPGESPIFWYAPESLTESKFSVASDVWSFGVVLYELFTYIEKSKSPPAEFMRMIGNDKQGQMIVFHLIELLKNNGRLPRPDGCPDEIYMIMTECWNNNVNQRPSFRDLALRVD
- assayName: JAK2 enzyme assay (Caliper LabChip, Ki)
- setupConditions: 25 μM ATP
- Procedure: JAK Enzyme Assays were Carried Out as Follows: The activity of the isolated recombinant JAK1 and JAK2 kinase domain was measured by monitoring phosphorylation of a peptide derived from JAK3 (Val-Ala-Leu-Val-Asp-Gly-Tyr-Phe-Arg-Leu-Thr-Thr, fluorescently labeled on the N-terminus with 5-carboxyfluorescein) using the Caliper LabChip® technology (Caliper Life Sciences, Hopkinton, Mass.). […]
API: label(entry) gives rule met if the entry's Ki is strictly smaller than 1000 pM; on equality or larger values it gives rule not met.

smilescode=CC(C)Sc1ccc(OC(F)F)c(-c2nn(CC(=O)N3CCC(CN4CCN(CC(=O)N(C)C)CC4)CC3)cc2NC(=O)c2cnn3cccnc23)c1 classname="rule not met"
smilescode=CC(C)Sc1ccc(OC(F)F)c(-c2nn(CC(=O)N3CCC(N4CCNC(=O)C4)CC3)cc2NC(=O)c2cnn3cccnc23)c1 classname="rule met"
smilescode=CSc1ccc(OC(F)F)c(-c2nn(CC(=O)N3CCC(CN4CCN(CC(=O)N(C)C)C[C@H]4C)CC3)cc2NC(=O)c2cnn3cccnc23)c1 classname="rule met"
smilescode=CSc1ccc(OC(F)F)c(-c2nn([C@H]3CCCN(C)C3)cc2NC(=O)c2cnn3cccnc23)c1 classname="rule met"
smilescode=CC(C)Sc1ccc(OC(F)F)c(-c2nn(CC(=O)N3CCC(N4CCO[C@H](CO)C4)CC3)cc2NC(=O)c2cnn3cccnc23)c1 classname="rule not met"
smilescode=CC(C)Sc1ccc(OC(F)F)c(-c2nn(CC(=O)N3CCC(N(CCN4CCOCC4)C4COC4)CC3)cc2NC(=O)c2cnn3cccnc23)c1 classname="rule not met"
smilescode=CC(C)Sc1ccc(OC(F)F)c(-c2nn(Cc3cn(C4CCN(C5COC5)CC4)nn3)cc2NC(=O)c2cnn3cccnc23)c1 classname="rule met"
smilescode=CC(F)(F)CNC1CCN(C(=O)Cn2cc(NC(=O)c3cnn4cccnc34)c(-c3cc(SC4CC4)ccc3OC(F)F)n2)CC1 classname="rule met"
smilescode=CSc1ccc(OC(F)F)c(-c2nn(C3(CC#N)CN(C(=O)OC(C)(C)C)C3)cc2NC(=O)c2cnn3cccnc23)c1 classname="rule met"
smilescode=CSc1ccc(OC(F)F)c(-c2nn(CC(=O)N3CCC(N(C)C4COC4)CC3)cc2NC(=O)c2cnn3cccnc23)c1 classname="rule met"
smilescode=CC(C)Sc1ccc(OC(F)F)c(-c2nn(CC(=O)N3CCC(N4CCN(CC(=O)N5CCOCC5)CC4)CC3)cc2NC(=O)c2cnn3cccnc23)c1 classname="rule not met"
smilescode=CC(C)Sc1ccc(OC(F)F)c(-c2nn(CC(=O)N3CCN(C)CC3)cc2NC(=O)c2cnn3cccnc23)c1 classname="rule not met"
smilescode=CN1CCN(C2CCN(C(=O)Cn3cc(NC(=O)c4cnn5cccnc45)c(-c4cc(SC5CC5)ccc4OC(F)F)n3)CC2)CC1 classname="rule not met"
smilescode=O=C(Nc1cn(CCN[C@@H]2CCOC2)nc1-c1cc(SC2COC2)ccc1OC(F)F)c1cnn2cccnc12 classname="rule met"
smilescode=CSc1ccc(OC(F)F)c(-c2nn(CC(=O)N3CCC(NCCC#N)CC3)cc2NC(=O)c2cnn3cccnc23)c1 classname="rule met"

----------
- systemName: isolated recombinant JAK1 kinase domain (Homo sapiens)
- Construct: The activity of the isolated recombinant JAK1 and JAK2 kinase domain was measured
- Sequence (P23458 875-1153 limits assumed): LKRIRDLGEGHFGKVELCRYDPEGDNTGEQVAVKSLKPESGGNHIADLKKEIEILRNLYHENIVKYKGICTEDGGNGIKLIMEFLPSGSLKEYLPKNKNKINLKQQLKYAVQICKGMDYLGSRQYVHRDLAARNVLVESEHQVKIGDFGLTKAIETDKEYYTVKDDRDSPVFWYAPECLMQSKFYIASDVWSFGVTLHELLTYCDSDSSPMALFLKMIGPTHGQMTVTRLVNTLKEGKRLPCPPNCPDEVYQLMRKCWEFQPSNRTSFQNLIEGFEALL
- assayName: JAK1 enzyme assay (Caliper LabChip, Ki)
- Type: biochemical
- setupConditions: recombinant JAK1 kinase domain, 25 μM ATP
observedProperty: Ki (pM)

smilescode=CC(=O)N1CCN(CC2CCN(C(=O)Cn3cc(NC(=O)c4cnn5cccnc45)c(-c4cc(SC(C)C)ccc4OC(F)F)n3)CC2)CC1 measureunit=pM recordedvalue=270
smilescode=CC(C)Sc1ccc(OC(F)F)c(-c2nn(CC(=O)N3CCC(NCC(=O)N(C)C)CC3)cc2NC(=O)c2cnn3cccnc23)c1 measureunit=pM recordedvalue=420
smilescode=CSc1ccc(OC(F)F)c(-c2nn(CC(=O)N3CCC(N(C)[C@@H]4CCOC4)CC3)cc2NC(=O)c2cnn3cccnc23)c1 measureunit=pM recordedvalue=310
smilescode=CSc1ccc(OC(F)F)c(-c2nn(CC(=O)N3CCC(CN4CCN(C(C)=O)CC4)CC3)cc2NC(=O)c2cnn3cccnc23)c1 measureunit=pM recordedvalue=260
smilescode=CSc1ccc(OC(F)F)c(-c2nn(CC(=O)N3CCC(N(C)C4COC4)CC3)cc2NC(=O)c2cnn3cccnc23)c1 measureunit=pM recordedvalue=250
smilescode=CSc1ccc(OC(F)F)c(-c2nn(CC(=O)N3CCC(N(C)CC4OCCO4)CC3)cc2NC(=O)c2cnn3cccnc23)c1 measureunit=pM recordedvalue=500
smilescode=CSc1ccc(OC(F)F)c(-c2nn(CC(=O)N3CCC(N4CCn5ccnc5C4)CC3)cc2NC(=O)c2cnn3cccnc23)c1 measureunit=pM recordedvalue=230
smilescode=CC(C)Sc1ccc(OC(F)F)c(-c2nn(CC(=O)N3CCC(N4CCN(C5COC5)CC4)CC3)cc2NC(=O)c2cnn3cccnc23)c1 measureunit=pM recordedvalue=920
smilescode=CSc1ccc(OC(F)F)c(-c2nn(CC(=O)N3CCC(N4CCO[C@@H](CO)C4)CC3)cc2NC(=O)c2cnn3cccnc23)c1 measureunit=pM recordedvalue=310
smilescode=CC(F)(F)CNC1CCN(C(=O)Cn2cc(NC(=O)c3cnn4cccnc34)c(-c3cc(SC4CC4)ccc3OC(F)F)n2)CC1 measureunit=pM recordedvalue=430
smilescode=CSc1ccc(OC(F)F)c(-c2nn(CC(=O)N3CCC(NCC(C)(C)C#N)CC3)cc2NC(=O)c2cnn3cccnc23)c1 measureunit=pM recordedvalue=200
smilescode=CC(C)Sc1ccc(OC(F)F)c(-c2nn(CC(=O)N3CCC(N4CCO[C@H](CO)C4)CC3)cc2NC(=O)c2cnn3cccnc23)c1 measureunit=pM recordedvalue=520
smilescode=CN1CCN(C2CCN(C(=O)Cn3cc(NC(=O)c4cnn5cccnc45)c(-c4cc(SC5COC5)ccc4OC(F)F)n3)CC2)CC1 measureunit=pM recordedvalue=1100
smilescode=CSc1ccc(OC(F)F)c(-c2nn(C)cc2NC(=O)c2cnn3cccnc23)c1 measureunit=pM recordedvalue=130
smilescode=CSc1ccc(OC(F)F)c(-c2nn(CC(=O)N3CCC(N4CCCOCC4)CC3)cc2NC(=O)c2cnn3cccnc23)c1 measureunit=pM recordedvalue=320
smilescode=CN(C1CCN(C(=O)Cn2cc(NC(=O)c3cnn4cccnc34)c(-c3cc(SC4CC4)ccc3OC(F)F)n2)CC1)C1COC1 measureunit=pM recordedvalue=430
smilescode=CC(C)Sc1ccc(OC(F)F)c(-c2nn(CC(=O)N3CCN(CCOCCO)CC3)cc2NC(=O)c2cnn3cccnc23)c1 measureunit=pM recordedvalue=410
smilescode=CSc1ccc(OC(F)F)c(-c2nn(CC(=O)N3CCC(N4CCO[C@H](CO)C4)CC3)cc2NC(=O)c2cnn3cccnc23)c1 measureunit=pM recordedvalue=370
smilescode=CC(C)Sc1ccc(OC(F)F)c(-c2n[nH]cc2NC(=O)c2cnn3cccnc23)c1 measureunit=pM recordedvalue=200
smilescode=CSc1ccc(OC(F)F)c(-c2nn(CC(=O)N3CCC(CN4C[C@@H](C)N(CC(=O)N(C)C)C[C@@H]4C)CC3)cc2NC(=O)c2cnn3cccnc23)c1 measureunit=pM recordedvalue=640
smilescode=CSc1ccc(OC(F)F)c(-c2nn(CC(=O)N3CCC(N4CCOC[C@@H]4C)CC3)cc2NC(=O)c2cnn3cccnc23)c1 measureunit=pM recordedvalue=250
smilescode=CSc1ccc(OC(F)F)c(-c2nn(CC(=O)N3CCC(N(C)CC(=O)N(C)C)CC3)cc2NC(=O)c2cnn3cccnc23)c1 measureunit=pM recordedvalue=440
smilescode=CSc1ccc(OC(F)F)c(-c2nn(CC(=O)N3CCC(N(C)CC(=O)N4CCCC4)CC3)cc2NC(=O)c2cnn3cccnc23)c1 measureunit=pM recordedvalue=320

----------
- systemName: isolated recombinant JAK2 kinase domain (Homo sapiens, UniProt O60674)
- Construct: The activity of the isolated recombinant JAK1 and JAK2 kinase domain was measured
- assayName: JAK2 enzyme assay (Caliper LabChip, Ki)
- setupConditions: 25 μM ATP
pKi: −log10 of the molar value.
observedProperty: pKi

compound=CC(C)Sc1ccc(OC(F)F)c(-c2nn(CC(=O)N3CCN(CCN4CCOCC4)CC3)cc2NC(=O)c2cnn3cccnc23)c1 observedproperty=pKi recordedvalue=9.11
compound=CSc1ccc(OC(F)F)c(-c2nn(CC(=O)N3CCC(N4CCC[C@@H](C#N)C4)CC3)cc2NC(=O)c2cnn3cccnc23)c1 observedproperty=pKi recordedvalue=9.48
compound=CC(C)(C#N)CNC1CCN(C(=O)Cn2cc(NC(=O)c3cnn4cccnc34)c(-c3cc(SC4CC4)ccc3OC(F)F)n2)CC1 observedproperty=pKi recordedvalue=9.17
compound=CSc1ccc(OC(F)F)c(-c2nn(CC(=O)N3CCC(N4CCOC[C@H]4C)CC3)cc2NC(=O)c2cnn3cccnc23)c1 observedproperty=pKi recordedvalue=9.37
compound="CSc1ccc(OC(F)F)c(-c2nn(CC(=O)N3CCC(N4CCOCC4CO)CC3)cc2NC(=O)c2cnn3cccnc23)c1 (stereo not shown)" observedproperty=pKi recordedvalue=9.42
compound=CC(C)Sc1ccc(OC(F)F)c(-c2nn(CC(=O)N3CCC(N4CCO[C@@H](CO)C4)CC3)cc2NC(=O)c2cnn3cccnc23)c1 observedproperty=pKi recordedvalue=9.00
compound=CSc1ccc(OC(F)F)c(-c2nn(CC(=O)N3CCC(N(C)CCC(=O)N4CCC4)CC3)cc2NC(=O)c2cnn3cccnc23)c1 observedproperty=pKi recordedvalue=9.07
